Entries and their measured pIC50 follow.
- System: Madurella mycetomatis MM55
- condition_set: 7 days
Note on pIC50: it is the negative log10 of concentration, concentration in mol/L.

// worked examples, pIC50 included
Nc1c2c(nc3sc4c(c13)CCCC4)CCCC2    5.01
CO/N=C(\C(=O)OC)c1ccccc1CO/N=C(\C)c1cccc(C(F)(F)F)c1    5.98
CO/C=C(/C(=O)OC)c1ccccc1Oc1cc(Oc2ccccc2C#N)ncn1    6.22

Now for another entry.
# input compound: CC1(C)OB(O)c2ccc(C3=NOC(c4cc(Cl)c(F)c(Cl)c4)(C(F)(F)F)C3)cc21 (centres undefined) ; wanted: its pIC50
4.93

Data origin, for the record: the supplement of paper PMC5940239
